Provenance of the data: patent US20050282743A1

Each entry below carries its recorded Classification.
Molecular target: PDZ protein (GST-PDZ fusion) (Homo sapiens, UniProt Q02410)
Construct: made in house; host or cells: E. coli (DH5alpha, BL21 or JM109)
Sequence (Q02410 1-837): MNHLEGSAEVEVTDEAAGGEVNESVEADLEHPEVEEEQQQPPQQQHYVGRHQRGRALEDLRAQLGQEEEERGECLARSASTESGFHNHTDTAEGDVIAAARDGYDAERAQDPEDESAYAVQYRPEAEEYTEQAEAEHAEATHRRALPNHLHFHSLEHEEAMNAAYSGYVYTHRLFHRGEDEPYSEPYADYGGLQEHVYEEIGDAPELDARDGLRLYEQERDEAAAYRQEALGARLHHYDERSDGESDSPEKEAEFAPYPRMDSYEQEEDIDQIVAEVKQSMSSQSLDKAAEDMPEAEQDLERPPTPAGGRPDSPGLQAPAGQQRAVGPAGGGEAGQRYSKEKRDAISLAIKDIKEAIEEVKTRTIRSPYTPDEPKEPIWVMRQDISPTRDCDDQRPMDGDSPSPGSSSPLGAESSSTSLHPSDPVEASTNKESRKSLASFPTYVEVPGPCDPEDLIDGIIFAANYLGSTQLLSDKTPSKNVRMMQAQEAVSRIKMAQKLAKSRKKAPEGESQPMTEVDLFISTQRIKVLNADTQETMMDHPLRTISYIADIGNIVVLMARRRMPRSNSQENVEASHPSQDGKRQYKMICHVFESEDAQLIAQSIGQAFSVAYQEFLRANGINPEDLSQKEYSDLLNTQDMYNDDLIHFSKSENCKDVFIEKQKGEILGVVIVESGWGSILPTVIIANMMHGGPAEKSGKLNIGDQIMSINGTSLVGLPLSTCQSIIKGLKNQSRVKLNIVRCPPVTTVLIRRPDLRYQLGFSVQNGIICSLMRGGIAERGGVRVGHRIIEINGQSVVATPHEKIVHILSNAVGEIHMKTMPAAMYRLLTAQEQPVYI
Assay: G' assay (10 uM PL peptide), results of TABLE 7 and TABLE 12
Assay type: binding
Conditions: PDZ Mint 1, PDZ Domain 1, 2
Ends that are not written are not given here. * marks the point of attachment. Biotin = O=C1N[C@H]2[C@H](CS[C@H]2CCCCC(=O)*)N1

Sample answers from the record:
DGGARTEDEVQSYPSKHDYV (Biotin-DGGARTEDEVQSYPSKHDYV) [claudin 18] = 1 (A450 nm 0-1)
SSKSKSSEESQTFFGLYKL (Biotin-SSKSKSSEESQTFFGLYKL) [Fas Ligand] = 4 (A450 nm 3-4)
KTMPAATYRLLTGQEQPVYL (Biotin-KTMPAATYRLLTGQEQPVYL) [MINT-3] = 2 (A450 nm 1-2)
PGQPPKVKSEFNSYSLTGYV (Biotin-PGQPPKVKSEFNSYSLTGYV) [claudin 2] = 2 (A450 nm 1-2)
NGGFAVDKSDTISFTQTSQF [glutamate transporter 3] = 1 (A450 nm 0-1)

The measured Classification associated with SSPDSSYQGKGFVMSRAMYV (Biotin-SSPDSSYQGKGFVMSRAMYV) [Nectin 2] reads 2 (A450 nm 1-2)

The measured Classification associated with SSR4_HUMAN (EALQPEPGRKRIPLTRTTTF) reads 1 (A450 nm 0-1)

The measured Classification associated with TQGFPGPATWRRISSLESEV reads 1 (A450 nm 0-1)

The measured Classification associated with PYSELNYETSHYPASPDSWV (Biotin-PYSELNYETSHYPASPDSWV) [catenin - delta 2] reads 5 (A450 nm of 4 more than 2× repeated)

----------
Target: PDZ protein (GST-PDZ fusion) (Homo sapiens, UniProt O14907)
Construct: made in house; host or cells: E. coli (DH5alpha, BL21 or JM109)
Sequence (O14907 1-124): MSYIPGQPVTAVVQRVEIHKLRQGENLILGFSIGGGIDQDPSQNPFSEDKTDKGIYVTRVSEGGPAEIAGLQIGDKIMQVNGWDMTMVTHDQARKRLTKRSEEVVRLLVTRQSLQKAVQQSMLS
Assay: G' assay (10 uM PL peptide), results of TABLE 7 and TABLE 12
Format: binding
Details: PDZ TIP1, PDZ Domain 1
Ends that are not written are not given here. * marks the point of attachment. Biotin = O=C1N[C@H]2[C@H](CS[C@H]2CCCCC(=O)*)N1
Each entry below carries its recorded Classification.

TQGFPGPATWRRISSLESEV = 5 (A450 nm of 4 more than 2× repeated)

The measured Classification associated with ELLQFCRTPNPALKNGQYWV (Biotin-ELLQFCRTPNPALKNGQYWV) reads 1 (A450 nm 0-1)

The measured Classification associated with ARHRVTSYTSSSVNVSSNL (Biotin-ARHRVTSYTSSSVNVSSNL) [IL-8RB] reads 1 (A450 nm 0-1)

The measured Classification associated with APC—adenomatous polyposis coli protein (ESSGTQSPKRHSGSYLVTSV) reads 3 (A450 nm 2-3)

----------
Each entry below carries its recorded Classification.
Molecular target: PDZ protein (GST-PDZ fusion) (Homo sapiens, UniProt P57105)
Construct: made in house; host or cells: E. coli (DH5alpha, BL21 or JM109)
Sequence (P57105 1-145): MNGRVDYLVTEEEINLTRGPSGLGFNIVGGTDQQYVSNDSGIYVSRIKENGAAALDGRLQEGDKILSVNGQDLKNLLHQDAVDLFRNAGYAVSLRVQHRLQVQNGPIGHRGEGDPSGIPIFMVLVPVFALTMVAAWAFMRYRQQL
Assay: G' assay (10 uM PL peptide), results of TABLE 7 and TABLE 12
Type: binding
Details: PDZ Outer Membrane, PDZ Domain 1
Ends that are not written are not given here. * marks the point of attachment. Biotin = O=C1N[C@H]2[C@H](CS[C@H]2CCCCC(=O)*)N1

The measured Classification associated with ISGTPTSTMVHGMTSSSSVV (Biotin-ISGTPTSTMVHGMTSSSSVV) [Clasp-2] reads 1 (A450 nm 0-1)

The measured Classification associated with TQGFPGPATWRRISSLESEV reads 5 (A450 nm of 4 more than 2× repeated)

The measured Classification associated with APC—adenomatous polyposis coli protein (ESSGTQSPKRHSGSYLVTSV) reads 2 (A450 nm 1-2)

----------
Each entry below carries its recorded Classification.
molecular target: PDZ protein (GST-PDZ fusion) (Homo sapiens, UniProt P78352); construct: made in house; host or cells: E. coli (DH5alpha, BL21 or JM109); assay: G' assay (10 uM PL peptide), results of TABLE 7 and TABLE 12; assay type: binding; conditions: PDZ PSD95, PDZ Domain 1, 2, 3
Sequence (P78352 whole entry, the tested form may be a part): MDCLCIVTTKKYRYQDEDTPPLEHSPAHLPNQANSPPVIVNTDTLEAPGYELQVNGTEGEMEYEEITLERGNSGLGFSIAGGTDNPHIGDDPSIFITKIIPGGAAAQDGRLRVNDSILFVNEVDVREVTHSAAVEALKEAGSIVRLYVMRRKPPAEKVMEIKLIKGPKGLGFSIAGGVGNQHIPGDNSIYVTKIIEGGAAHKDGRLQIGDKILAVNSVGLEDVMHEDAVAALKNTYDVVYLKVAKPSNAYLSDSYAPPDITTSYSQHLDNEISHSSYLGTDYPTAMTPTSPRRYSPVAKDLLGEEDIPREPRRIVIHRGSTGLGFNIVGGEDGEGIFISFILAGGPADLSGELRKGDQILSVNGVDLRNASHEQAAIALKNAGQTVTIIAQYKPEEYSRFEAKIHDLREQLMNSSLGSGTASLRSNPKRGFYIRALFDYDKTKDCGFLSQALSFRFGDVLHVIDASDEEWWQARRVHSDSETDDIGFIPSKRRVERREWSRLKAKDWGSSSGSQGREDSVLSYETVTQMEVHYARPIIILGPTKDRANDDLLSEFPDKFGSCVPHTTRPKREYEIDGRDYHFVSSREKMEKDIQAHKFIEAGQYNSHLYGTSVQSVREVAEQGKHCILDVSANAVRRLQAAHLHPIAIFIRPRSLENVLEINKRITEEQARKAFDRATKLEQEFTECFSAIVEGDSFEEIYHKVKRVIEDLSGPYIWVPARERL
Ends that are not written are not given here. * marks the point of attachment. Biotin = O=C1N[C@H]2[C@H](CS[C@H]2CCCCC(=O)*)N1

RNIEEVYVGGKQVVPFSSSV (Biotin-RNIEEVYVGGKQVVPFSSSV) [Nedasin (s-form)] = 3 (A450 nm 2-3)
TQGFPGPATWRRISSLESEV = 5 (A450 nm of 4 more than 2× repeated)
A2AB_HUMAN (modified) (Biotin-QDFRRAFRRILARPWTQTAW; not fully specified) = 5 (A450 nm of 4 more than 2× repeated)

The measured Classification associated with SLKPGTVLPPPPYRHRNTVV (Biotin-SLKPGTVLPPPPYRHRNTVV) [ErbB-4 receptor] reads 1 (A450 nm 0-1)

The measured Classification associated with APC—adenomatous polyposis coli protein (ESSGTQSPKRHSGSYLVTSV) reads 5 (A450 nm of 4 more than 2× repeated)

The measured Classification associated with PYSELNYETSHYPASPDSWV (Biotin-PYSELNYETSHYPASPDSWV) [catenin - delta 2] reads 2 (A450 nm 1-2)

The measured Classification associated with GGGGGSGGGGGSGIESVKI [GLUR2 (glutamate receptor 2-modified)] reads 2 (A450 nm 1-2)

----------
Biological target: PDZ protein (GST-PDZ fusion) (Homo sapiens, UniProt O14641)
Construct: made in house; host or cells: E. coli (DH5alpha, BL21 or JM109)
Sequence (O14641 1-736): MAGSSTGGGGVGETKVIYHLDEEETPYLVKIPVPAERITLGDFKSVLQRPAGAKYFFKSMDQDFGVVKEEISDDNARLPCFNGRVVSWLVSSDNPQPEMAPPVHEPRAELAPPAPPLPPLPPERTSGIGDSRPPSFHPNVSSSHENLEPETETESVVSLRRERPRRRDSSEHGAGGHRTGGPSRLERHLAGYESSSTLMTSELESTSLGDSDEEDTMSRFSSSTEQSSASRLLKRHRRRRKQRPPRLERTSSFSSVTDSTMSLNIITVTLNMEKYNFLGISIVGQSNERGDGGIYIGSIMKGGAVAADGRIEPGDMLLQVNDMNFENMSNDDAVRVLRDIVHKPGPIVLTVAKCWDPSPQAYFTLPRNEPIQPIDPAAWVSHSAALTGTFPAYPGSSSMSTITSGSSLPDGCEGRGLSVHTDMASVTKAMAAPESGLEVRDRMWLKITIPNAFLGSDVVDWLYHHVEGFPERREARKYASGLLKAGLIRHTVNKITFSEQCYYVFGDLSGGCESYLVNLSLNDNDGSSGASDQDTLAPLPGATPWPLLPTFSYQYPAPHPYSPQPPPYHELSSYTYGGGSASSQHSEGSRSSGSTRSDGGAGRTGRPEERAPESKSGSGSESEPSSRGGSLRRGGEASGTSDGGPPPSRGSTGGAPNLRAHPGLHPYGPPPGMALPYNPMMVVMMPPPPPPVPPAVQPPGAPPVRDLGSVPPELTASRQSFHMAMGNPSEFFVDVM
Assay: G' assay (10 uM PL peptide), results of TABLE 7 and TABLE 12
Format: binding
Settings: PDZ DVL2, PDZ Domain 1
Ends that are not written are not given here. * marks the point of attachment. Biotin = O=C1N[C@H]2[C@H](CS[C@H]2CCCCC(=O)*)N1
ASSAY_METRIC: Classification

Sample answers from the record:
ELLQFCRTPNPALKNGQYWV (Biotin-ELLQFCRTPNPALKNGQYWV) = 5 (A450 nm of 4 more than 2× repeated)
A2AC_HUMAN (Modified) (Biotin-DFRPSFKHILFRRARRGFRQ; not fully specified) = 3 (A450 nm 2-3)
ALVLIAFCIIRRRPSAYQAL (Biotin-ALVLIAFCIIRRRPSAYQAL) [CD68] = 2 (A450 nm 1-2)
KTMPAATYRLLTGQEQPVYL (Biotin-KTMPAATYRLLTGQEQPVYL) [MINT-3] = 1 (A450 nm 0-1)

The measured Classification associated with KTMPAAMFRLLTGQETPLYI (Biotin-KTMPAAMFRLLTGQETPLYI) [MINT-2] reads 2 (A450 nm 1-2)
